- Tested on: HOP-92 NSCLC
- procedure details: NCI-60 one-dose screen, 48 h (100 = growth as untreated, 0 = no growth, -100 = all killed)
- condition description: 10 µM unless noted
This is part of a sample that, as a whole, favours compounds with a hit. Of some 83,000 tested, about 20% had one in any assay.
Documented growth across a set of molecules
Please reply with the bare figure in % and do not write the unit itself.

Examples with their reported growth follow.
C(=N\Nc1ccc2ccccc2n1)/c1ccccn1    42.2
O=Nc1ccc2ccccc2c1O    90.1
CCc1cnc2ccccc2c1/C=C/c1ccc(N(C)C)cc1    60.1
Oc1ccc2ccccc2c1N=Nc1nccs1    46.9
NC(=Nc1nc(-c2ccccn2)cc2ccccc12)c1ccccn1    -2.84

growth reported for this molecule Cc1nnc(N/N=C/c2ccc([N+](=O)[O-])o2)[nH]c1=O : -35.8

----------
- Test system: UO-31 renal
- procedure details: NCI-60 one-dose screen, 48 h
- condition description: 10 µM unless noted
About 83,000 compounds went through this panel and 20% of them were active in at least one assay; those are over-represented in the sample as a whole. Active and inactive are the calls of the source. The calls were made as follows: active = growth percent below 10; inactive = the rest.
Outcome (select one): active, inactive

Consider the following illustrative entries.
O=S(=O)(O)c1cnccn1    inactive
COC(=O)C(=[N+]=[N-])C(=O)c1ccc([N+](=O)[O-])o1    inactive
N#CCc1cccc2ccccc12    inactive
S=c1[nH]c2cc(Cl)ccc2s1    inactive
CCCCCC/C=C1\CCC(CN2CCCC2)C1=O (stereo unspecified)    inactive
O=C(C[P+](c1ccccc1)(c1ccccc1)c1ccccc1)c1ccccc1    inactive

Problem: # fetch the recorded call for CCOC(=O)c1c(C)[nH]c2ccc(O)cc12 here
Solution: inactive

Problem: Which result was noted for this molecule in the test: Cn1c(-c2ccccc2)c(/C=C/C2=[N+](C)c3ccccc3C2(C)C)c2ccccc21
Solution: inactive

Problem: Write down the call the test reported for this molecule. Item: CCCCCCCCCCCCCCCCSC(=NCC)NCC
Solution: active

Problem: Record request — test call for CCCOC(=O)c1nc(N(CC2CCCCC2)C(=O)NC)sc1/N=C/c1ccccc1
Solution: inactive

Problem: Hi team, can someone confirm the assay call for NCCCN(CCCN)CCCNCc1c2ccccc2c(CNCCCN(CCCN)CCCN)c2ccccc12 ?
Solution: inactive

----------
- System: U251 CNS
- procedure details: NCI-60 one-dose screen, 48 h
- condition description: 10 µM unless noted
Compounds without any hit were thinned out: in the full panel of roughly 83,000, 20% have a hit. Active and inactive are the calls of the source. How the source made its calls: active means growth percent below 10; inactive means the rest.
Output constraint: value belongs to T (active), F (inactive)

Some solved entries appear below for comparison.
O=C(c1ccccc1)C(Br)C(Br)c1ccccc1 (stereo not given)    F
CC(C)(C)c1ccc(O)c(Br)c1    F
O=C(Nc1cccc(C(F)(F)F)c1)Oc1ccc(Cl)c2cccnc12    T
O=C(c1ccccc1)C(O)C(Br)(CBr)c1ccccc1 (stereo not given)    F

Please examine the following record next.
Problem: So what was the verdict on O=[N+]([O-])c1cc(-c2ccccc2)c(O)c([N+](=O)[O-])c1 in this test?
Solution: F

----------
- Tested on: 786-0 renal
- procedure details: NCI-60 one-dose screen, 48 h (100 = growth as untreated, 0 = no growth, -100 = all killed)
- condition description: 10 µM unless noted
Compounds without any hit were thinned out: in the full panel of roughly 83,000, 20% have a hit. The source made the active and inactive calls. Rule for the calls: active = growth percent below 10; inactive = the rest.
value type: growth

Guide cases for growth, answers given:
c1ccc(-c2cccc(-c3ccccn3)n2)nc1    16.2% (inactive)
Cc1ccc(/C=C2\CNC/C(=C\c3ccc(C)cc3)C2=O)cc1    -71.5% (active)

Recorded growth (molecule O=C(c1ccccc1)C(Br)[N+](=O)[O-] (centres undefined) ): 106% (inactive)

According to the records, this molecule CCN(CC)CC(O)CNc1ccc(NCC2CO2)c2c1C(=O)c1ccccc1C2=O (centres undefined) displays growth of -21.7% (active)

// field: growth; key: O=C(c1ccccc1)c1cc2ccccc2oc1=O ; value = 102% (inactive)

Recorded values, source PubChem BioAssay (NCI).
